experiment: Oral absorbability in dogs (drug concentration in plasma); type: in vivo, Male beagles (dog); details: dog, plasma; male beagles, oral 50 mg/kg, 24 hr
RECORDED ENDPOINT: concentration at 24 h
Entry format: amount then unit.

Which measured concentration at 24 h value corresponds to O=C(C(c1ccccc1)c1ccccc1)N1CCN(CC(O)COc2cccc3ncccc23)CC1.O=C(O)/C=C/C(=O)O (stereo not shown) ?
30 ng/mL

---

assay: physchem; format: physicochemical; conditions: water
RECORDED ENDPOINT: solubility (mg/mL)
Could you give me the number in mg/mL? Just the number is fine.

Which measured solubility value corresponds to O=C(C(c1ccccc1)c1ccccc1)N1CCN(CC(O)COc2cccc3ncccc23)CC1.O=C(O)/C=C/C(=O)O (centres unmarked) ?
1.4
